- Tested on: MLK2;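 also: KINOMEscan kinase panel screen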
- Condition Context: concentration: 1 μM, replicates: in singlicate; n = 1
Measured Metric: %Inh (%)
Provide only the numeric value, understood in %.

Query string: Which %Inh value belongs to COC(=O)Nc1nc2cc(Oc3ccc(NC(=O)Nc4cccc(SC)c4)cc3)ccc2[nH]1.Cl [GW697999] ?
Result string: 0

Query string: Which %Inh value belongs to O=C(Nc1n[nH]c2cc(-c3cccs3)ccc12)C1CC1 [SB-731284] ?
Result string: 27

Query string: Which %Inh value belongs to COc1cccc2c(-c3ccncc3)c(-c3ccc(F)cc3)nn12 [GW468513] ?
Result string: 1

Query string: Which %Inh value belongs to COc1cccc(C2=C(Nc3cccc(O)c3)C(=O)NC2=O)c1 [SB-390771] ?
Result string: 0

Query string: Which %Inh value belongs to Nc1cccc(-c2ccc3c(N)n[nH]c3c2)c1 [GSK2193613] ?
Result string: 100

Query string: Which %Inh value belongs to O=C(Nc1n[nH]c2nc(-c3ccccc3O)ccc12)C1CC1 [SB-711880] ?
Result string: 0

Query string: Which %Inh value belongs to Cl.Cl.NC(CNC(=O)c1cc(Br)c(-c2ccnc3[nH]ccc23)s1)c1ccccc1 (stereo not drawn) [GSK1322949] ?
Result string: 0

Query string: Which %Inh value belongs to CN(c1ccc(NC(=O)N2CCN(CCCN3CCOCC3)CC2)cc1)c1ccnc(Nc2ccc(CS(C)(=O)=O)cc2)n1.Cl [GW830899] ?
Result string: 29

Query string: Which %Inh value belongs to COc1ccc(C2=C(Nc3cccc(O)c3)C(=O)NC2=O)cc1 [SB-390766] ?
Result string: 0

Query string: Which %Inh value belongs to CC(C)NCC(Cc1ccccc1)NC(=O)c1cc(Br)c(-c2ccnc3[nH]ccc23)s1.Cl.Cl (stereo not drawn) [GSK1383281] ?
Result string: 0

Query string: Which %Inh value belongs to Nc1ncc(-c2ccc3nccc(-c4ccncc4)c3c2)cc1S(=O)(=O)N1CCCCC1 [GSK1693850] ?
Result string: 0

Query string: Which %Inh value belongs to O=C(Nc1n[nH]c2nc(-c3cccc(O)c3)ccc12)C1CC1 [SB-711805] ?
Result string: 13

Query string: Which %Inh value belongs to Cl.Cl.NCC(NC(=O)c1cc(-c2cccnc2)c(-c2ccnc3[nH]ccc23)s1)c1ccccc1 (stereo not drawn) [GSK1323434] ?
Result string: 0

Query string: Which %Inh value belongs to Cc1ccc(C)c(NC(=O)Nc2ccc(C)c(-c3ccc(C(=O)Nc4ccncc4)cc3)c2)c1 [GSK1398473] ?
Result string: 0

Query string: Which %Inh value belongs to COc1cccc(CC(=O)N2CCc3cc(-c4cn(C)c5ncnc(N)c45)ccc32)c1 [GSK2608899] ?
Result string: 41

Query string: Which %Inh value belongs to CN(c1ccc2c(c1)nc(NCc1ccccc1)n2C)c1ccnc(Nc2ccc(CS(C)(=O)=O)cc2)n1.Cl [GW811603] ?
Result string: 17

Query string: Which %Inh value belongs to COc1cc(Nc2nccc(N3CCC(NS(=O)(=O)c4ccc(NC(C)=O)cc4)CC3)n2)cc(OC)c1OC [GSK1379825] ?
Result string: 0

Query string: Which %Inh value belongs to Cc1ccc(O)cc1Nc1ccnc2ccc(C(C)(C)C)cc12 [GW856805] ?
Result string: 19

Query string: Which %Inh value belongs to CC(C)c1nc(-c2cccc(NS(=O)(=O)c3c(F)cccc3F)c2)c(-c2ccnc(Nc3ccc(N4CCOCC4)nc3)n2)s1.Cl [GSK1723980] ?
Result string: 34

Query string: Which %Inh value belongs to CN(C)CCOc1ccc(-c2cc(-c3ccc(Cl)c(O)c3)c(-c3ccncc3)[nH]2)cc1.Cl.Cl [SB-684387] ?
Result string: 0

Query string: Which %Inh value belongs to Cl.O=C(Nc1ccc(Oc2ccc3[nH]c(NC(=O)c4ccco4)nc3c2)cc1)Nc1cc(C(F)(F)F)ccc1F [GW683134] ?
Result string: 28

Query string: Which %Inh value belongs to CCn1c(-c2nonc2N)nc2c(-c3ccccc3)ncc(OCCCN)c21.O=C(O)C(F)(F)F.O=C(O)C(F)(F)F [GSK260205] ?
Result string: 0

Query string: Which %Inh value belongs to Nc1ncc(-c2cn[nH]c2)c2scc(-c3ccc4c(c3)CCN4C(=O)Cc3ccccc3)c12 [GSK2593067] ?
Result string: 0

Query string: Which %Inh value belongs to NCCC(NC(=O)c1cc(Br)c(-c2ccnc3[nH]ccc23)s1)c1ccccc1.O=C(O)C(F)(F)F.O=C(O)C(F)(F)F (stereo not drawn) [GSK1307810] ?
Result string: 0

Query string: Which %Inh value belongs to Cc1ccc(NC(=O)c2ccnc(N3CCCCC3)c2)cc1-c1ccc(C(=O)NCC2CC2)cc1 [GW775610] ?
Result string: 0

Query string: Which %Inh value belongs to O=C(O)C(F)(F)F.O=c1[nH]ccc2nc(N[C@@H]3CCNC3)nc(Nc3ccc4c(c3)S(=O)(=O)CC4)c12 [GSK2181306] ?
Result string: 9

Query string: Which %Inh value belongs to Cn1cc(-c2ccc3c(c2)CCN3C(=O)Cc2cc(F)cc(C(F)(F)F)c2)c2c(N)ncnc21 [GSK2635225] ?
Result string: 42

Query string: Which %Inh value belongs to COc1ccc(C)c(Nc2ccnc(Nc3ccc(-c4cnc[nH]4)cc3)n2)c1.Cl [GW784041] ?
Result string: 12

Query string: Which %Inh value belongs to O=C(O)C(F)(F)F.O=c1[nH]ccc2nc(N[C@@H]3CCNC3)nc(Nc3cc(Cl)cc(Cl)c3)c12 [GSK2188764] ?
Result string: 0

Query string: Which %Inh value belongs to O=C1NC(=O)C(c2ccccc2Cl)=C1Nc1cccc(Cl)c1 [SB-342409] ?
Result string: 28

Query string: Which %Inh value belongs to Fc1cc(Cl)ccc1Nc1ccnc2cc(-c3ccc(CN4CCOCC4)o3)ccc12 [GW560109] ?
Result string: 0

Query string: Which %Inh value belongs to CNc1nccc(-c2ccc3c(N)n[nH]c3c2)n1 [GSK2206003] ?
Result string: 0

Query string: Which %Inh value belongs to Cc1cc(-c2ccnc(Nc3cccc(C#N)c3)n2)cc(C)c1O [GSK1440913] ?
Result string: 0

The measured values listed here are drawn from paper PMC5540273.
